Taken from PubChem BioAssay AID1159580.

assay: chemical genetic growth profiling, strain panel (AID 1159580);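 further: tested at 20 µM; growth read once vehicle control cultures reached saturation at 30 °C; 1 = growth at the plate median or of vehicle wells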; details: S. cerevisiae deletion strains, growth OD, locus YLR384C, strain iki3, stronger effect = lower value
The campaign covered roughly 5,500 compounds. About 2,000 (36%) were called active. Another 18% or so got no clear call; they are omitted. Some of the results follow.
Checkbox rule: normalized growth lower than 1 = class 1; normalized growth not lower than 1 = class 0.

Examples from the recorded data:
| compound | group.label |
| --- | --- |
| Oc1c(Cl)cc(Cl)c2cccnc12 | class 1 |
| Cc1ccc2c(Cl)cc(Cl)c(O)c2n1 | class 0 |

Please turn your attention to the following entry.
Here's an entry: CO[C@H]1/C=C/O[C@@]2(C)Oc3c(C)c(O)c4c(O)c(c5c(nc6cc(C)ccn65)c4c3C2=O)NC(=O)/C(C)=C\C=C\[C@H](C)[C@H](O)[C@@H](C)C(O)[C@@H](C)[C@H](OC(C)=O)[C@@H]1C (stereo not given in full) . Is its normalized growth below 1?
class 0

* * *

test: chemical genetic growth profiling, strain panel (AID 1159580); conditions: S. cerevisiae deletion strains, growth OD, locus YOR231W, strain MKK1
In all, about 5,500 compounds went through this assay and about 2,000 (36%) were called active. Inconclusive results (about 18%) are left out. No stated cut-off is given here; in the data, active means normalized growth mostly below about 0.91 (no sharp cut-off); inconclusive means no clear call, values can overlap the other calls; inactive means mostly above about 0.92. The list shows a part of the results.
Please reply with one of these outcomes: class 1 for active, class 0 for inactive

Consider the worked cases shown below.
| compound | group.label |
| --- | --- |
| N#CC(C#N)=C/C=C(/Sc1nc2ccccc2s1)c1ccc(Br)cc1 | class 1 |
| O=[N+]([O-])c1cc([As](=O)(O)O)ccc1O | class 0 |
| O=C1C=CC2=C3c4cc(O)c(O)cc4C[C@@]3(O)COC2=C1 | class 0 |
| CC(C)=CCC/C(C)=C/CC/C(C)=C/CC/C(C)=C/CC/C(C)=C/CC/C(C)=C/CC/C(C)=C/CC/C(C)=C/CC/C(C)=C/CO | class 0 |
| CC(=O)O[C@H]1C[C@@H](OC(C)=O)C(C)(C)C2C[C@@H](OC(C)=O)[C@@]3(C)C4=CC(=O)O[C@@H](c5ccoc5)[C@]4(C)CCC3[C@]21C (some centres not stated) | class 0 |

Assay result, entry CC(C)=CCC/C(C)=C/CC/C(C)=C/CC/C(C)=C/CO — outcome?
class 0

What would you report for C[C@H](N)[C@H](O)c1ccc(O)c(O)c1 ?
class 0

Same thing, different compound: N[C@@H](Cc1ccc(O)c(O)c1)C(=O)O
class 0

Now the compound OC[C@@H]1CCCN2CCCC[C@H]12
class 0

Cool, now COC(=O)C[C@H]1C(C)(C)C(=O)[C@@H]2CC3=C4CC(=O)O[C@@H](c5ccoc5)[C@]4(C)CCC3[C@@]1(C)C2=O (some centres not stated)
class 0

* * *

experiment: chemical genetic growth profiling, strain panel (AID 1159580); conditions: S. cerevisiae deletion strains, growth OD, locus YNL006W, strain LST8, stronger effect = lower value
In all, about 5,500 compounds went through this assay and about 2,000 (36%) were called active. Another 18% or so got no clear call; they are omitted. This is one part of the list.
measurement.type: normalized growth
# respond with the number and nothing more

| molecule | measurement.type | result.value |
| --- | --- | --- |
| CCCc1c(C(=O)NC2Cc3ccccc3C2)cnn1-c1ccccc1 | normalized growth | 0.995 |

Sample Cc1c2c(=O)[nH]ncc2c(-c2ccccc2)n1-c1ccc([N+](=O)[O-])cc1 — what was its normalized growth?
0.983

Next molecule up: O=C1CSC(c2cccnc2)N1c1ccc(Cl)cc1Cl (configuration not stated)
0.986

Proceed to CCCc1c(C(=O)Sc2ccccn2)cnn1-c1ccc(Cl)cc1
0.98

And then CC(C)c1ccc(N2C=Nc3ccc(C(C)C)cc3C2)cc1 , what is it?
1.01

And the next one, O=[N+]([O-])c1cc(Br)cnc1Sc1nnc(SCC2CC2)s1 ?
0.961

Please answer likewise for Cc1cc(Br)ccc1-n1c(Sc2c([N+](=O)[O-])cc(C(F)(F)F)cc2[N+](=O)[O-])nc2ccccc2c1=O
0.981

* * *

test: chemical genetic growth profiling, strain panel (AID 1159580); settings: S. cerevisiae deletion strains, growth OD, locus YNL224C, strain SQS1, stronger effect = lower value
Screen size: about 5,500 compounds; about 2,000 (36%) were called active. Roughly 18% stayed inconclusive and do not appear here. The list shows a part of the results.
# Lookup of reported normalized growth keyed by entry
Lab note: record just the number, no unit beside it.

| molecule | normalized growth |
| --- | --- |
| Nc1ncnc2c1ncn2[C@@H]1O[C@H](COP(=O)(O)OP(=O)(O)OP(=O)(O)OP(=O)(O)OC[C@@H]2O[C@H](n3cnc4c(N)ncnc43)C(O)[C@@H]2O)[C@H](O)C1O (stereo not given in full) | 1 |
| O=c1[nH]c(=O)n([C@H]2C[C@H](O)[C@@H](CO)O2)cc1Br | 1 |
| Nc1ncnc2c1ncn2[C@@H]1O[C@H](CO)[C@H](O)C1O (stereo not given in full) | 1.02 |
| CNC[C@H](O)c1ccc(O)c(O)c1 | 1.01 |

# context switch: different molecule, same normalized growth
Query (molecule): COc1cc(C(O)CN)ccc1O (stereo not given) ; field requested: normalized growth
1

* * *

assay: chemical genetic growth profiling, strain panel (AID 1159580); conditions: S. cerevisiae deletion strains, growth OD, locus YDR159W, strain sac3, stronger effect = lower value
Hit rate of the full screen: of about 5,500 compounds, about 2,000 (36%) were called active. Another 18% or so got no clear call; they are omitted. The list shows a part of the results.
measurement.type: normalized growth
Form rule: numeric answer, no unit written next to it.

| molecule | normalized growth |
| --- | --- |
| CC(=O)/C(=C\c1ccccc1)CC(=O)O | 0.97 |
| CCCC(C)C1(CC)C(=O)NC(=O)NC1=O (configuration not stated) | 0.995 |
| CCN(CC)CCNC(=O)c1cc(S(C)(=O)=O)ccc1OC | 0.978 |
| CCC(Cc1c(I)cc(I)c(N)c1I)C(=O)O (configuration not stated) | 0.895 |
| O=C(O)CF | 0.997 |

Sample CC(C)NCC(O)c1ccc2ccccc2c1 (configuration not stated) — what was its normalized growth?
0.971

Same question, CCCC(C)C1(CC)C(=O)N=C(S)NC1=O (configuration not stated) this time
0.971

Lookup COc1cccc(/C=C/C(=O)O)c1C(C)C
0.917

Record: O=C1O[C@H](C(O)CO)C(O)=C1O (some centres not stated)
0.984

Entry to check: O[N+]1=CC=CCC1=S.On1ccccc1=S.[Zn]
0.104

* * *

test: chemical genetic growth profiling, strain panel (AID 1159580);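 further: tested at 20 µM; growth read once vehicle control cultures reached saturation at 30 °C; 1 = growth at the plate median or of vehicle wells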; conditions: S. cerevisiae deletion strains, growth OD, locus YKR001C, strain vps1, stronger effect = lower value
The campaign covered roughly 5,500 compounds. About 2,000 (36%) were called active. Another 18% or so got no clear call; they are omitted. The list shows a part of the results.
The label is 1 for normalized growth below 1 and -1 for normalized growth equal to or exceeding 1.

| sample.smiles | group.label |
| --- | --- |
| C=C[C@](C)(O)CCC=C(C)C | -1 |

Say whether its normalized growth is strictly beneath 1. Entry: CCN(CC)CCOc1ccc(/C(=C(\Cl)c2ccccc2)c2ccccc2)cc1
1

Another compound: CC/C(=C(\c1ccccc1)c1ccc(OCCN(C)C)cc1)c1ccccc1
1

* * *

Reported normalized growth values are given for each entry in this list.
assay: chemical genetic growth profiling, strain panel (AID 1159580);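 further: tested at 20 µM; growth read once vehicle control cultures reached saturation at 30 °C; 1 = growth at the plate median or of vehicle wells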; conditions: S. cerevisiae deletion strains, growth OD, locus YHR129C, strain ARP1, stronger effect = lower value
Among all 5,500 compounds or so, about 2,000 (36%) were called active. Inconclusive results (about 18%) are left out. Some of the results follow.
The answer should be a number; do not append a unit.

Answered cases to consult:
| sample.smiles | normalized growth |
| --- | --- |
| O=C(O)c1ccccc1Nc1cccc(C(F)(F)F)c1 | 0.918 |
| CC/C(=C(\c1ccccc1)c1ccc(OCCN(C)C)cc1)c1ccccc1 | 0.0531 |
| CCC[C@H]1CC2=C(C[C@@H](CC)CC3=C1C(=O)OC3=O)C(=O)OC2=O | 1.02 |
| CCN(CC)CCOc1ccc(/C(=C(\Cl)c2ccccc2)c2ccccc2)cc1 | 0.0567 |

For the compound shown here, CC(=O)NCCCCCC(=O)O , give the reported normalized growth.
1.01

Same read-out for COc1cc(C(=O)NCc2ccc(OCCN(C)C)cc2)cc(OC)c1OC ?
0.995

* * *

In this section we review reported normalized growth values for a set of molecules.
experiment: chemical genetic growth profiling, strain panel (AID 1159580);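 further: tested at 20 µM; growth read once vehicle control cultures reached saturation at 30 °C; 1 = growth at the plate median or of vehicle wells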; conditions: S. cerevisiae deletion strains, growth OD, locus YDR195W, strain ref2
In all, about 5,500 compounds went through this assay and about 2,000 (36%) were called active. Not shown: some 18% with an inconclusive outcome. Some of the results follow.
Simply state the number, no unit and no words.

Examples from the recorded data:
| molecule | normalized growth |
| --- | --- |
| CC(=O)NCCCS(=O)(=O)O | 1.02 |
| C=C(C)[C@H]1CC=C(C(=O)O)CC1 | 0.844 |
| CC(C)=CCC[C@](C)(O)C1CC=C(C)CC1 (stereo partly drawn) | 1 |
| CC(=O)NCCCCCC(=O)O | 0.982 |
| O=C(O)C1=CCNCC1 | 0.996 |
| CC(C)(C)NCC(O)c1ccccc1Cl (stereo not drawn) | 0.959 |

Recorded normalized growth for OC[C@@H](O)[C@@H](O[C@@H]1O[C@H](CO)[C@@H](O)[C@H](O)[C@H]1O)[C@H](O)[C@@H](O)CO , please?
0.958

Same lookup for NCCCC[C@H](N[C@@H](CCc1ccccc1)C(=O)O)C(=O)N1CCC[C@H]1C(=O)O , please.
0.987

Param item: C[n+]1cccc(C(=O)[O-])c1
0.91

Here is the next molecule: O=C(O)CCCCC1CCSS1 (stereo not drawn)
0.994

For C=CC(C)(O)CC/C=C(\C)CCC=C(C)C (stereo not drawn) then?
0.662

Consider next the molecule OC[C@@H]1CCCN2CCCC[C@H]12 in the same way.
1.02

Repeat with Nc1ccc(S(=O)(=O)Nc2ccc(Cl)nn2)cc1
0.968
